Values compiled from the DeepSol protein solubility set.

- Assay name: soluble on expression in E. coli; label from the status in PepcDB or PDB records
Recorded endpoint: soluble on expression in E. coli

See these solved cases before continuing.
1) MSLYLMPKQDEIALLKQEEETVKATLRIKANKVAVLPQIQAQLDELKERYDFLLRQLPVQKELASMLASVNQLGLDSSLTFTRIDWGERESQEFLYRLPLNIELTGSYHDIGDFSQAIAKLPRIINFDDVDWQRVSQESSTLHFRVRAYTYQFKQEVDDEKEGHHHHHH | not soluble
2) MGSDKIHHHHHHMTAQFDDATLTKRLAKGTGEILKGVRNVGLLRGRELGEAGDDLAQNWIARVLEQHRPDDGFLSEEAADNPERLGKDRVWIIDPLDGTKEFATGRQDWAVHIALVENGVPTHAAVNLPDLGVVFHSSEVRAVGGPYAKKIAISHNRPPAVATHIAESLGFTAEPMGSAGAKAMHVLLGDYDAYIHAGGQYEWDSAAPVGVSLAAGLHCSRLDGTPLNYNNKDTYLPDVLICRPELADDILTMAAAFREENGSY | not soluble
3) AMSYTPGQPVTAVVQRVEIHKLRQGENLILGFSIGGGIDQDPSQNPFSEDKTDKGIYVTRVSEGGPAEIAGLQIGDKIMQVNGWDMTMVTHDQARKRLTKRSEEVVRLLVTRQ | soluble
4) MSLSWYEEWFWSDAYTRVYDHRDDAEAEQLVDLIEHEIAPASGAHILDIGCGRGRHARALVRRGWQVTGLDLSEDAVAAARSRVADDDLDVRASFRVGDMRTPVCDGCADGVVNLFTSFGYFDADAENERALAAMATALRPGGWFLQDFLNAPQVAESLGASVYETEDGRTIHQDRWIEDGRVNKKITVRQNGHTETFQESVRLYTRSDLTAMYERVGLEVVALFGDYDGGNYVPDESPRLLLHAVRPTEGHHHHHH | soluble
5) MVTKEVGHDFLARLGKKRLRPGGVEATNWLIEQGQFSQDCHVLEVACNRCTTAIELAKTFGCQIDAVDLNPKVVKEAQERVAVEGLTRHITVSQASALSLPFPDNHFDIVINEAMLTMLNAQAKEKALNEYWRVLKPGGRLLTHDVAYEDPKTRQVLDELRQTIHVNVAPLSLTGWQALYQEHGFSQVTYHHGKMSLMTPRGMIKDEGLMNTLNIMRRGLKKENRQQFLKMRRFFTRTGKNLCYIAVKSVK | not soluble

Dear reader, for each entry below, please note its soluble on expression in E. coli.
1. MKFTVGIAMNPLDQLPALARTAEECGFSSIALPDSLFFMEKQSADYPYTPDGSRMWNEETPWVDPLIAAAAMGAVTSKIEFYTQVLKLGSRNPVLLARQVGSVANLIGNRFGFGVGIGWAPEEFEWCGVPYKKRGARVDEMIDVIKLILGGGMVEYHGEFFDFDRLQMSPAPTKPVPFYVGGHTDVALRRAARVGDGWTSAMIKFDDLVQVIARLRELREEYGRADLPYEIQTVCIDRFGKDGYAELADAGVTDTIVVPWVFDGIGFDGPLEAKQDSLRKFADQYIG
2. MGSSHHHHHHSSGLVPRGSHELGGRVSGSLAWRVARGETGLERKEILFIPSENEKISKQFHLRYDIVRDRYIRVSDNNTNISGWENGVWKMESIFRKVEKDWNMVYLARKEGSSFAYISWKFECGSAGLKVDTVSIRTSSQSFESGSVRWKLRSETAQVNLLGDKNLRSYNDFSGATEVTLEAELSRGDGDVAWQHTQLFRQSLNDSGENGLEIIITFNDL
3. MGSDKIHHHHHHMALFEGYERRIDGINTVLKKYGMNSIEDAKKVCDEKGINVYDIVRSIQPICFENACWAYTLGAAIAIKNGCTSASDAAKNIGEGLQAFCIPGSVADDRKVGLGHGNLGAMLLSEDAKCFAFLAGHESFAAAEGAIGIAKSANKVRKEPLRVILNGLGKDAAQIISRINGFTYVQTQFDYYTGELKIVKETAYSKGERAEVRCFGADDVREGVAIMHHEGVDVSITGNSTNPTRFQHPVAGTYKKECFEMGKKYFSVASGGGTGRTLHPDNMAAGPASYGMTDTMGRMHSDAQFAGSSSVPAHVDMMGLIGMGNNPMVGATVAVAVAIEEAMK
4. MAKISEIMLLQQPEQPALAIEVQTYMKGMSQAIGENFVRIDSLFKKQGEVTTDIPFVEYPDFESLTEDRIKMIIGLKSSKPLQGDEKIQSVILPARRIVVCLHRGNYNELAQLYNEMTEWIKTNGYKASGTSIEYYYSNPDVPEEEHVTRVEMPLL
5. MGSDKIHHHHHHMDTIGRRLDMGKRIVLADPRGFCAGVDRAILTVRTILKSADTPRADGLPPVYVRRQIVHNKHVVEDLAAQGAVFVQELAEIPDAAAEAGIPIVFSAHGVSPAVKAEATARGMHVVDATCPLVSKVHREVLRFVKEGYEIIYIGHKGHDEAVGVVEESPEHVHLIEHASDVDSLDFQPDTKLVLLTQTTLSVDETAGTITALKARFPWLEMPPNSDICYATSNRQAAVKLVAEQADCVVIVGSANSSNSVRLMEVAQEGLSARYASKTAVGAAGRAHRVDDASELDPAWFEGVESVGISSGASVPDELVSGVVAALQELGYQDVSTIETIKENMHFVLPAELRK
6. KKMREEGVHEGCMEQIYRMFSQRLYKEDGSAAEVDDMNRLRLDDWELREDIQQHCRELWPQITTENLKELTDYVEYKEEFLKLFGFGVEGVDYEADVNPAVETDFIQI
7. HLEGLGASVLDFTGFAQKFGTVLSYIRLGAKPDTLHQVRIDTGGADAVIGCDMVVSSAPKASAHYRNGTKVVLNRAEMPTGDLVLHRDAQLKIDTREAAIRAVVGTENVSGFDANQTAEQLLGDAVFANVMMLGYAWQQGLVPVSRSALAQAILLNGVAVEKNRLAFAAGRALAADPARLDVESASPE
8. MSLQKFSDEQRSQIETIIKEYLVSHPEVLEEASEELGKRQAAAQAEKHQQAIKDNADIIYNSPRGVTVGNKNGDVTMVEFFDYNCGYCKRAMTDMMELMKDDPNLKVVLKEFPVLGPPSVEAAQVAIAVRMQDPTGKKYLDFHQKLLGGRGQADKARALAAAKDAGLDPAKIEKDMNSPEVRATIEESFKLAESMGMNGTPSYVIGKQVVVGAVGLDTLRQKINTARCGKDKCEGHHHHHH

-- reply
1. not soluble
2. soluble
3. not soluble
4. not soluble
5. not soluble
6. not soluble
7. not soluble
8. soluble
